- ASSAY_TEXT: activity coefficient (dimensionless); of the first substance listed, at infinite dilution; xn = mol fraction of the nth substance listed
- CONDITION_SUMMARY: 371.15 K; 101 kPa; Liquid; inert gas stripping, headspace analysis in two variants - the classical and the relative, Rayleigh distillation, and circulation still; x1 = 0

{"COMPOUND": "CC(C)C(C)O (centres undefined) [3-methyl-2-butanol] + O", "activity coefficient": 108}
{"COMPOUND": "CC(C)CCO [3-methylbutan-1-ol] + O", "activity coefficient": 149}
{"COMPOUND": "CCC(O)CC [3-pentanol] + O", "activity coefficient": 104}
{"COMPOUND": "CCCC(C)O (centres undefined) [pentan-2-ol] + O", "activity coefficient": 118}

====

Collected activity coefficient values appear next to each entry.
- ASSAY_TEXT: activity coefficient (dimensionless); of the first substance listed, at infinite dilution; xn = mol fraction of the nth substance listed
- CONDITION_SUMMARY: 343.15 K; 101 kPa; Liquid; inert gas stripping, headspace analysis in two variants - the classical and the relative, Rayleigh distillation, and circulation still; x1 = 0
VALUE_TYPE: activity coefficient

{"COMPOUND": "CCC(C)CO (stereo unspecified) [2-methyl-1-butanol] + O", "VALUE_TYPE": "activity coefficient", "READOUT_VALUE": 169}
{"COMPOUND": "CCC(C)(C)O [2-methylbutan-2-ol] + O", "VALUE_TYPE": "activity coefficient", "READOUT_VALUE": 64.2}
{"COMPOUND": "CCCC(C)O (stereo unspecified) [pentan-2-ol] + O", "VALUE_TYPE": "activity coefficient", "READOUT_VALUE": 134}
{"COMPOUND": "CC(C)CCO [3-methylbutan-1-ol] + O", "VALUE_TYPE": "activity coefficient", "READOUT_VALUE": 179}
{"COMPOUND": "CC(C)C(C)O (stereo unspecified) [3-methyl-2-butanol] + O", "VALUE_TYPE": "activity coefficient", "READOUT_VALUE": 111}
{"COMPOUND": "CCC(O)CC [3-pentanol] + O", "VALUE_TYPE": "activity coefficient", "READOUT_VALUE": 111}

====

- ASSAY_TEXT: activity coefficient (dimensionless); of the first substance listed, at infinite dilution; xn = mol fraction of the nth substance listed
- CONDITION_SUMMARY: 273.35 K; 101 kPa; Liquid; inert gas stripping, headspace analysis in two variants - the classical and the relative, Rayleigh distillation, and circulation still; x1 = 0
VALUE_TYPE: activity coefficient

{"MOLECULE": "CC(C)C(C)O (stereo unspecified) [3-methyl-2-butanol] + O", "VALUE_TYPE": "activity coefficient", "READOUT_VALUE": 43.5}
{"MOLECULE": "CCCC(C)O (stereo unspecified) [pentan-2-ol] + O", "VALUE_TYPE": "activity coefficient", "READOUT_VALUE": 58.8}
{"MOLECULE": "CCC(C)CO (stereo unspecified) [2-methyl-1-butanol] + O", "VALUE_TYPE": "activity coefficient", "READOUT_VALUE": 86.3}
{"MOLECULE": "CC(C)CCO [3-methylbutan-1-ol] + O", "VALUE_TYPE": "activity coefficient", "READOUT_VALUE": 94.9}
{"MOLECULE": "CCC(O)CC [3-pentanol] + O", "VALUE_TYPE": "activity coefficient", "READOUT_VALUE": 48.7}
{"MOLECULE": "CCC(C)(C)O [2-methylbutan-2-ol] + O", "VALUE_TYPE": "activity coefficient", "READOUT_VALUE": 18.3}
